// data source = PubChem BioAssay

# STUDY SYSTEM: Calmodulin-1 (Homo sapiens)
# RUN DESCRIPTION: calcium-bound CALM1 binders on microarrays, profiling panel, artefact control for SMM control-protein annotation, biochemical, small-molecule microarray, Cy5-labelled CALM1, plus calcium (AID 1112);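 also: score merges spot fluorescence with signal to noise from triplicate slides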
# SETUP CONDITIONS: Cy5-CALM1 binding fluorescence, higher = more signal
Would you mind labelling by composite z-score? At or over -0.2 is Satisfied, under is Not satisfied.

Reference set (3 entries):
>>> discrete_label("COCCOC(=O)N1C(=O)[C@@]2(c3cc(C#CCC(C(=O)OC)C(=O)OC)ccc31)[C@H](C(=O)N1CCc3cc(OC)c(OC)cc3C1)[C@H]1C(=O)O[C@H](c3ccccc3)[C@H](c3ccccc3)N1[C@@H]2c1ccccc1OCCO")
"Not satisfied"
>>> discrete_label("CC(C)C[C@H]1NC(=O)CNC(=O)[C@@]23C(=O)N[C@@H](Cc4ccccc4)C2[C@H](C)[C@@]2(C)O[C@H]2C3/C=C/C/C=C\\CNC1=O (stereo partly drawn)")
"Not satisfied"
>>> discrete_label("CCOC(=O)C[C@H]1[C@H](OC(=O)c2cc3ccccc3oc2=O)[C@@H](NC(=O)c2ccc(-c3ccccc3)cc2)c2cc(OCCCO)ccc2N1C(=O)Cc1ccc(OC)cc1")
"Not satisfied"

## Input State whether the measured composite z-score reaches -0.2, counting equality as reaching it, for O=C1NC(=O)C2C1C=CC(C(O)C1CCCCC1)N2Nc1ccccn1 (stereo not drawn)
## Output Satisfied

## Input State whether the measured composite z-score reaches -0.2, counting equality as reaching it, for COCCOC(=O)N1C(=O)[C@@]2(c3cc(C#CC4(O)CCCCCC4)ccc31)[C@H](C(N)=O)[C@H]1C(=O)O[C@H](c3ccccc3)[C@H](c3ccccc3)N1[C@@H]2c1ccc(OCCO)cc1
## Output Satisfied

## Input State whether the measured composite z-score reaches -0.2, counting equality as reaching it, for CCCCCCCCCCC(O)C1C=CC2C(=O)N(C)C(=O)C2N1Nc1ccccc1 (stereo not drawn)
## Output Satisfied

## Input State whether the measured composite z-score reaches -0.2, counting equality as reaching it, for C=C(C(=O)CC[C@@H](OC(=O)c1ccccc1-c1ccccc1C(=O)O)c1ccc(OCCO)cc1)C(C)C
## Output Not satisfied

## Input State whether the measured composite z-score reaches -0.2, counting equality as reaching it, for COC(=O)[C@@]1(Cc2ccc(F)cc2)[C@H]2c3cc(C(=O)N4CCCC4)n(C[C@H](O)CO)c3C[C@H]2CN1C(=O)c1ccccc1
## Output Satisfied
